Test system: TK-10 renal
Assay: NCI-60 one-dose screen, 48 h (100 = growth as untreated, 0 = no growth, -100 = all killed)
Conditions: 10 µM unless noted
Compounds without any hit were thinned out: in the full panel of roughly 83,000, 20% have a hit.
parameter: growth (%)
Number in %, nothing else.

Reference set (2 entries):
1. N#CC(C#N)=Cc1ccc2ccccc2c1; 111
2. COc1cc(C2=NN(c3ccccc3)C(c3sc(N(CCCl)CCCl)nc3Cl)C2)cc(OC)c1OC (stereo not drawn); 102

I'd like to know its growth. The compound in question is ClCCN(CCCl)c1nc(Cl)c(C2CC(c3ccccc3)=NN2c2ccccc2)s1 (stereo not drawn)
108

Again, but for CCCCCCCCCCOc1ccc(C(=O)Oc2ccc(CSP3(=O)OCC4OC(n5ccc(=O)[nH]c5=O)C(F)C4OP(=O)(O)OCC4OC(n5cnc6c(N)ncnc65)C(F)C4O3)cc2)cc1 (stereo not drawn)
92

Again, but for CCC(C)/C=C(C)/C=C/C(=O)c1c(O)c(-c2ccc(O)cc2)c[nH]c1=O (stereo not drawn)
27.3

Again, but for COc1ccc(C(c2ccc(OC)cc2)C(Cl)(Cl)Cl)cc1
90.3

Again, but for O=S(=O)(Cl)c1ccccc1 (tested in a mixture with another compound)
105

Again, but for CC1(C)CC2(CC(C)(C)c3cc(O)c(O)cc32)c2cc(O)c(O)cc21
117
